ASSAY_SYSTEM: HLA-A*69:01
ASSAY_OVERVIEW: IEDB peptide-MHC binding, purified MHC/direct/fluorescence; filed as Kd, often an IC50 or EC50 that approximates it; bounds were set here for any values at or beyond the usual limits of such assays
TEST_CONTEXT: source organism: Influenza A virus (A/Switzerland/8808/2002(H1N1))
pKd: −log10 of the molar value.
READOUT_KIND: pKd

Request: I'd like to know its pKd. The sequence in question is VPAQNAIST
Response: ≤ 4.70

----------
ASSAY_SYSTEM: HLA-B*18:01
ASSAY_OVERVIEW: IEDB peptide-MHC binding, purified MHC/competitive/fluorescence; filed as Kd, often an IC50 or EC50 that approximates it; bounds were set here for any values at or beyond the usual limits of such assays
TEST_CONTEXT: source organism: Coxiella burnetii 'MSU Goat Q177'
READOUT_KIND: Kd

Request: Kd, test system HLA-B*18:01, entry AVDWYQQRI
Response: ≥ 20 µM

----------
ASSAY_SYSTEM: HLA-A*02:01
ASSAY_OVERVIEW: IEDB peptide-MHC binding, purified MHC/competitive/fluorescence; filed as Kd, often an IC50 or EC50 that approximates it; bounds were set here for any values at or beyond the usual limits of such assays
TEST_CONTEXT: source organism: Mycobacterium tuberculosis H37Ra
pKd: −log10 of the molar value.
READOUT_KIND: pKd

Request: pKd, test system HLA-A*02:01, entry AVYLLDGLR
Response: ≤ 4.70

----------
ASSAY_SYSTEM: HLA-A*11:01
ASSAY_OVERVIEW: IEDB peptide-MHC binding, purified MHC/direct/fluorescence; filed as Kd, often an IC50 or EC50 that approximates it; bounds were set here for any values at or beyond the usual limits of such assays
TEST_CONTEXT: source organism: Cowpox virus
pKd: −log10 of the molar value.
READOUT_KIND: pKd

Request: I'd like to know its pKd. The sequence in question is VYSFDESSF
Response: ≤ 4.70

----------
ASSAY_SYSTEM: HLA-A*29:02
ASSAY_OVERVIEW: IEDB peptide-MHC binding, purified MHC/competitive/radioactivity; filed as Kd, often an IC50 or EC50 that approximates it; bounds were set here for any values at or beyond the usual limits of such assays
TEST_CONTEXT: source organism: Lassa virus GA391
READOUT_KIND: pKd
When answering, recall that pKd equals minus log10 of the concentration in mol/L, and write that number alone.

Request: pKd, test system HLA-A*29:02, entry YCNYSRYWYL
Response: 5.08

----------
ASSAY_SYSTEM: HLA-A*68:01
ASSAY_OVERVIEW: IEDB peptide-MHC binding, purified MHC/competitive/radioactivity; filed as Kd, often an IC50 or EC50 that approximates it; bounds were set here for any values at or beyond the usual limits of such assays
TEST_CONTEXT: source organism: Hepatitis C virus (isolate H)
READOUT_KIND: Kd (nM)
Entry rule: numbers only, all in nM.

Request: I'd like to know its Kd. The sequence in question is HPALVFDITK
Response: 2.32

----------
ASSAY_SYSTEM: HLA-A*68:02
ASSAY_OVERVIEW: IEDB peptide-MHC binding, purified MHC/direct/fluorescence; filed as Kd, often an IC50 or EC50 that approximates it; bounds were set here for any values at or beyond the usual limits of such assays
TEST_CONTEXT: source organism: Choclo virus
pKd: −log10 of the molar value.
READOUT_KIND: pKd

Request: I'd like to know its pKd. The sequence in question is GRFQEALKK
Response: ≤ 4.70
